# TESTED ON: human JAK2 catalytic kinase (JH1) domain (Homo sapiens (Human))
# EXPERIMENT NOTES: ADP-Glo Kinase Assay, recombinant JAK2 catalytic kinase (JH1) domain
# Assay type: biochemical
# SETTINGS: recombinant JH1 domain 0.2 nM, 15 μM ATP, JAK3-974 peptide, mean, read-out: JAK2 biochem IC50 (nM) Mean
Counter-ions that a name gives are not always drawn.
OBSERVABLE: log10 IC50 (log10 of the value in nM)

>>> df
                                    compound  result
 0  Cn1cc(-c2cc3c(N4CC5CCC(C4)N5C(=O)C4(F)CC4)ccnc3[nH]2)cn1    1.62
 1  O=C(C1CC(F)C1)N1C2CCC1CN(c1ncnn3cc(-c4cnn(C(F)F)c4)cc13)C2 (stereo not drawn)    3.94
 2  O=C([C@@H]1C[C@H]1F)N1C2CCC1CN(c1ccnn3cc(-c4ccc(C(F)F)nc4)cc13)C2    1.61
 3  O=C(C1CC(O)(C(F)(F)F)C1)N1C2CCC1CN(c1ncnn3cc(-c4cnn(C(F)F)c4)cc13)C2 (stereo not drawn) [Example 36, trifluoroacetate]    3.87
 4  COc1cc(-c2cc3c(N4CC5CCC(C4)N5C(=O)[C@@H]4C[C@H]4F)c(F)cnc3[nH]2)ccn1    1.87
 5  Cc1ccc(-c2cc3c(N4CC5CCC(C4)N5C(=O)[C@@H]4C[C@H]4F)ncnc3[nH]2)cn1    2.66
 6  COc1ccc(-c2cc3c(N4CC5CCC(C4)N5C(=O)[C@@H]4C[C@H]4F)ccnn3c2)cn1    1.67
 7  COc1cc(-c2cc3c(N4CC5CCC(C4)N5C(=O)[C@@H]4C[C@H]4F)ccnc3[nH]2)ccn1    1.04
 8  CCC(=O)N1C2CCC1CN(c1ncnn3cc(-c4cnn(C)c4)cc13)C2    4.00
 9  O=C([C@@H]1C[C@H]1F)N1C2CCC1CN(c1ccnn3cc(-c4ccc(OC(F)F)nc4)cc13)C2    1.91
10  Cn1cc(-c2nc3c(N4CC5CCC(C4)N5C(=O)[C@@H]4C[C@H]4F)c(F)cnc3[nH]2)c(F)n1    1.40
11  C[C@]1(F)C[C@@H](C(=O)N2C3CCC2CN(c2ncnn4cc(-c5cnn(C(F)F)c5)cc24)C3)C1    3.79
12  O=C(C1CC1)N1C2CCC1CN(c1ncnn3cc(-c4cnn(C5CCOC5)c4)cc13)C2 (stereo not drawn)    3.33
13  Cn1cc(-c2cc3c(N4CC5CCC(C4)N5C(=O)[C@@H]4C[C@H]4F)ccnn3c2)cn1    1.48
14  N#Cc1ccc(-c2cc3c(N4CC5CCC(C4)N5C(=O)[C@@H]4C[C@H]4F)ccnn3c2)cn1    1.78

* * *

# TESTED ON: human JAK3 catalytic kinase (JH1) domain (Homo sapiens (Human), UniProt P52333)
# Sequence (P52333 822-1111): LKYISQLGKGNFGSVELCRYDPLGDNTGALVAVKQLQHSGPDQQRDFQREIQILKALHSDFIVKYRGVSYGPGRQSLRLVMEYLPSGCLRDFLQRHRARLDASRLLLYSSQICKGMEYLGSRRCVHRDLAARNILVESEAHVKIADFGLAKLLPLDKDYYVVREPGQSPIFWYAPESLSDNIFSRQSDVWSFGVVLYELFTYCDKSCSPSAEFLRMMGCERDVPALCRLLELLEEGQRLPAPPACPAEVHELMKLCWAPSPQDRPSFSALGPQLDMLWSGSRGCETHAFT
# EXPERIMENT NOTES: ADP-Glo Kinase Assay, recombinant JAK3 catalytic kinase (JH1) domain
# Type: biochemical
# SETTINGS: recombinant JH1 domain 0.3 nM, 4 μM ATP, JAK3-974 peptide, mean, read-out: JAK3 biochem IC50 (nM) Mean
Threshold check on IC50: strictly below 6000 nM is class 1; on or above 6000 nM is class 0.

In [3]: df
Out[3]:
                                    molecule  assigned_class
 0  Cn1cc(-c2cc3c(N4CC5CCC(C4)N5C(=O)C4CC4)ncnn3c2)nn1 [Example 186]         class 0
 1  O=C([C@@H]1C[C@H]1F)N1C2CCC1CN(c1ccnn3cc(-c4ccc(F)nc4)cc13)C2 [Example 169]         class 1
 2  O=C([C@@H]1C[C@H]1F)N1C2CCC1CN(c1ncnn3cc(-c4ccnnc4)cc13)C2 [Example 90]         class 0
 3  COc1cc(-c2cc3c(N4CC5CCC(C4)N5C(=O)[C@@H]4C[C@H]4F)ccnn3c2)cnn1 [Example 137]         class 1
 4  CC1(C)C(C(=O)N2C3CCC2CN(c2ncnn4cc(-c5cnn(C(F)F)c5)cc24)C3)C1(F)F (stereo not shown) [Example 13]         class 0
 5  N#CCC(=O)N1C2CCC1CN(c1ncnn3cc(-c4cnn(C(F)F)c4)cc13)C2 [Example 44]         class 1
 6  O=C([C@@H]1C[C@H]1F)N1C2CCC1CN(c1ncnc3[nH]c(-c4ccnc(C(F)(F)F)c4)cc13)C2 [Example 223]         class 1
 7  N#CC1CC1c1nc2c(N3CC4CCC(C3)N4C(=O)[C@@H]3C[C@H]3F)ccnc2[nH]1 (stereo partly shown) [Example 215]         class 0
 8  CNc1cc(-c2cc3c(N4CC5CCC(C4)N5C(=O)[C@@H]4C[C@H]4F)ccnn3c2)ccn1 [Example 99]         class 1
 9  N#Cc1cc(-c2cc3c(N4CC5CCC(C4)N5C(=O)[C@@H]4C[C@H]4F)ccnn3c2)ccn1 [Example 104]         class 1
10  O=C([C@@H]1C[C@H]1F)N1C2CCC1CN(c1ccnc3[nH]c(C4CC4)nc13)C2 [Example 208]         class 0
11  Cn1cc(-c2cc3c(N4CC5CCC(C4)N5C(=O)[C@H]4C[C@H]4C#N)ncnn3c2)cn1 (single isomer, unassigned) [Example 85]         class 1
12  O=C(C1CC1)N1C2CCC1CN(c1ccnn3cc(-c4cnn(C(F)(F)F)c4)cc13)C2 [Example 20]         class 1
13  COc1ccc(-c2cc3c(N4CC5CCC(C4)N5C(=O)C4CC4)ncnn3c2)cc1C#N [Example 185]         class 0
14  Cn1cc(-c2cc3c(N4CC5CCC(C4)N5C(=O)CC(F)(F)F)ncnn3c2)cn1 [Example 59]         class 0
15  Cn1cc(-c2cc3c(N4CC5CCC(C4)N5C(=O)C4CC4)ncnn3c2)cn1 [Example 146]         class 1
16  Cn1cc(-c2cc3c(N4CC5CCC(C4)N5C(=O)C4CC(F)C4)ncnn3c2)cn1 (stereo not shown) [Example 69]         class 0

* * *

# TESTED ON: human JAK1 catalytic kinase (JH1) domain (Homo sapiens (Human))
# Sequence (P23458 875-1153): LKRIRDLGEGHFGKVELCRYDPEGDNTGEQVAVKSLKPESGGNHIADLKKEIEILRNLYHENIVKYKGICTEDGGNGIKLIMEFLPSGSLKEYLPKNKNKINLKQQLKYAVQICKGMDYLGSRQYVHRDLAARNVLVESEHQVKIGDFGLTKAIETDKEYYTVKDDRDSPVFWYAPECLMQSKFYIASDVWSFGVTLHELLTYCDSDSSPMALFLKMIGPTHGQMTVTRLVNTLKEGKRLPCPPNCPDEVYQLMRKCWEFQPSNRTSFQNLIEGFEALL
# EXPERIMENT NOTES: ADP-Glo Kinase Assay, recombinant JAK1 catalytic kinase (JH1) domain
# Format: biochemical
# SETTINGS: recombinant JH1 domain 4 nM, 35 μM ATP, JAK3-342 peptide, mean, read-out: JAK1 biochem IC50 (nM) Mean
OBSERVABLE: IC50 (nM)

In [3]: df
Out[3]:
                            compound_string  observable  result
0  O=C([C@@H]1C[C@H]1F)N1C2CCC1CN(c1ncnn3cc(-c4ccc(=O)n(C(F)F)c4)cc13)C2        IC50     758
1  O=C(C1CC1)N1C2CCC1CN(c1ncnn3cc(-c4ccccc4F)cc13)C2        IC50    3660
2  CNc1cncc(-c2cc3c(N4CC5CCC(C4)N5C(=O)[C@@H]4C[C@H]4F)ccnn3c2)n1        IC50     211
3  Cn1cc(-c2cc3c(N4CC5CCC(C4)N5C(=O)[C@@H]4C[C@H]4F)ccnn3c2)cc(F)c1=O        IC50     149
4  Cn1cc(-c2cc3c(N4CC5CCC(C4)N5C(=O)[C@@H]4C[C@H]4F)ncnn3c2)c(F)n1        IC50     718

* * *

# TESTED ON: human JAK2 catalytic kinase (JH1) domain (Homo sapiens (Human), UniProt O60674)
# Sequence (O60674 849-1124): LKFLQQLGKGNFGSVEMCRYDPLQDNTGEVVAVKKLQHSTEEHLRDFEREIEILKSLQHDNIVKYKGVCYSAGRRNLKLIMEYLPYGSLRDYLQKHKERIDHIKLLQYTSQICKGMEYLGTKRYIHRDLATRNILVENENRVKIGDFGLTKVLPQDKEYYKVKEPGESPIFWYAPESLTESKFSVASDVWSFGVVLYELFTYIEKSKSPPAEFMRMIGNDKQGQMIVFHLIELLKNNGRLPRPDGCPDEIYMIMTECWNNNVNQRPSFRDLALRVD
# EXPERIMENT NOTES: ADP-Glo Kinase Assay, recombinant JAK2 catalytic kinase (JH1) domain
# Type: biochemical
# SETTINGS: recombinant JH1 domain 0.2 nM, 15 μM ATP, JAK3-974 peptide, mean, read-out: JAK2 biochem IC50 (nM) Mean
# Method: Compounds of the disclosure were assessed for their ability to inhibit TYK2, JAK1, JAK2, and JAK3 activity. The inhibitory properties of the compounds of the disclosure described herein can be evidenced by testing in any one of the following protocols. The kinase activity of recombinantly generated catalytic kinase (also known as JH1) domain of human JAK1, JAK2, JAK3 and TYK2 were evaluated in a plate-based assay using the ADP-Glo™ Kinase Assay platform. […]
OBSERVABLE: IC50 (nM)

In [3]: df
Out[3]:
                             compound_string  value_unit  result
 0  O=C([C@H]1C[C@H](C(F)(F)F)C1)N1C2CCC1CN(c1ncnn3cc(-c4cnn(C(F)F)c4)cc13)C2          nM   10000
 1  COc1ccc(-c2cc3c(N4CC5CCC(C4)N5C(=O)C4CC4)ncnn3c2)cc1C#N          nM   10000
 2  O=C(C1CC1)N1C2CCC1CN(c1ncnn3cc(-c4cnn(C(F)F)c4)c(F)c13)C2          nM   10000
 3  Cn1cc(-c2cc3c(N4CC5CCC(C4)N5C(=O)[C@@H]4C[C@H]4F)ccnc3[nH]2)cn1          nM       6
 4  O=C(C1CC1)N1C2CCC1CN(c1ncnn3cc(-c4ccc5nncn5c4)cc13)C2          nM    7480
 5  O=C(C1CC1)N1C2CCC1CN(c1ccnc3[nH]c(-c4cnn(C(F)F)c4)cc13)C2          nM      39
 6  Cn1cc(-c2nc3c(N4CC5CCC(C4)N5C(=O)[C@@H]4C[C@H]4F)ccnc3[nH]2)cn1          nM       6
 7  Cn1cc(-c2cc3c(N4CC5CCC(C4)N5C(=O)[C@@H]4C[C@H]4F)ccnn3c2)cc(F)c1=O          nM      84
 8  CN(C)c1cc(-c2cc3c(N4CC5CCC(C4)N5C(=O)[C@@H]4C[C@H]4F)ccnn3c2)ccn1          nM      68
 9  O=C(C1CC1)N1C2CCC1CN(c1ncnn3cc(-c4cnn(C5CCC5)c4)cc13)C2          nM    3130
10  Cn1cc(-c2cc3c(N4CC5CCC(C4)N5C(=O)C4(F)CC4)ncnn3c2)cn1          nM    5210
